- TARGET_DESC: Ste12 (UniProt P13574)
- Sequence (P13574 whole entry): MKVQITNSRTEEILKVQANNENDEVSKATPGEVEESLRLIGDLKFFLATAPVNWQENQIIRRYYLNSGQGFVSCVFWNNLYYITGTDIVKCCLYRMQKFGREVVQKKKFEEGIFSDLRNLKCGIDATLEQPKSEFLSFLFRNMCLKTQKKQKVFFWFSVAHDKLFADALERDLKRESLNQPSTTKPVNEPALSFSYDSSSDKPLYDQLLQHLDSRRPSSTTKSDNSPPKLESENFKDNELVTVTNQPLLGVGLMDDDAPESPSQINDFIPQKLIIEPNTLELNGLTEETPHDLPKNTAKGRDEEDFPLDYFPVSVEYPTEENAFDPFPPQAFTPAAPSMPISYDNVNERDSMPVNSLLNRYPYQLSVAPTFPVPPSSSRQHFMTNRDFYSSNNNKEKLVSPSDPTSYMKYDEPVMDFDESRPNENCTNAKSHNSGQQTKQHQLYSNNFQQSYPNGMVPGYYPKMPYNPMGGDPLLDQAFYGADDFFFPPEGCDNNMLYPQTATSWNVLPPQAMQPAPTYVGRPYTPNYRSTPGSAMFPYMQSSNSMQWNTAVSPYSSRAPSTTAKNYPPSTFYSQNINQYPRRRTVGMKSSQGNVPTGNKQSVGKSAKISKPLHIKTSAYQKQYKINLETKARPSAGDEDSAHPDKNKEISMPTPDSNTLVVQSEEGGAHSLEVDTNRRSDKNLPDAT
- TEST_PROTOCOL: PBM E-score (8-mer binding enrichment) (E-score (-0.5 to 0.5)); higher = stronger / more preferred TF binding
- STUDY_CONDITIONS: protein concentration: 200 nM; construct: GST-DNA-binding domain
The full ranking holds about 33,000 sequences; the median of “E-score (-0.5 to 0.5)” is about -0.01, and the highest 2% start at about 0.26. This is one part of a sample in which the highest values are shown more often than they occur.
Overview of reported PBM E-score across a group of sequences:
Lab note: record the figure alone, no unit after it.

Solved entries:
ATAGCCTG; -0.0913
ACGACAGT; -0.147
TATATGAA; 0.17

Value of measured PBM E-score for the entry CAAACCGA : 0.0295

Value of measured PBM E-score for the entry ATGATAAT : 0.13

Value of measured PBM E-score for the entry CGGCTGGC : -0.117

Value of measured PBM E-score for the entry AACAACTA : -0.00598

Value of measured PBM E-score for the entry GAGATGAA : 0.156

Value of measured PBM E-score for the entry CTTGCGAC : -0.128

Value of measured PBM E-score for the entry ACAAACCT : -0.111

Value of measured PBM E-score for the entry GAAACCGA : 0.267

Value of measured PBM E-score for the entry CACAACTA : 0.153

Value of measured PBM E-score for the entry ATTATGAA : 0.265

Value of measured PBM E-score for the entry TAGATGAA : 0.279

Value of measured PBM E-score for the entry CGGATGAG : -0.11

Value of measured PBM E-score for the entry ACGATGAA : 0.274

Value of measured PBM E-score for the entry AATATGAA : 0.269
